Biological target: Coagulation Factor Xa, from human plasma (human, UniProt P00742 41-488, limits assumed)
Sequence (P00742 41-488 limits assumed): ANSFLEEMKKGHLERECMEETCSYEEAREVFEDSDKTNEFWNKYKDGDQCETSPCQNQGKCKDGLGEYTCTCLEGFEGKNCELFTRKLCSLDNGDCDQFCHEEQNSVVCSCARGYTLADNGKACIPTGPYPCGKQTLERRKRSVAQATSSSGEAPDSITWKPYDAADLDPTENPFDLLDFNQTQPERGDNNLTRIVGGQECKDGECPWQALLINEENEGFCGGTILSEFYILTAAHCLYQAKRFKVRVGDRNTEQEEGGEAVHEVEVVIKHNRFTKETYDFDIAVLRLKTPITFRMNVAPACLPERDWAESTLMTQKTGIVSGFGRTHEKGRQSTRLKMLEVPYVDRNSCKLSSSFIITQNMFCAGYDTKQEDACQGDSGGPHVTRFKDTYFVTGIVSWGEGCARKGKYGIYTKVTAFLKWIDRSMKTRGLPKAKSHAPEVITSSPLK
Assay: cell-based or functional assay
Parameter: % inhibition at 100 µM

>>> assay_result("FCTKSDPPICN (HELM PEPTIDE1{F.C.T.K.S.D.P.P.I.C.N.[dP].P}$PEPTIDE1,PEPTIDE1,2:R3-10:R3|PEPTIDE1,PEPTIDE1,1:R1-13:R2$$$V2.0; SMILES CC[C@H](C)[C@@H]1NC(=O)[C@@H]2CCCN2C(=O)[C@@H]2CCCN2C(=O)[C@H](CC(=O)O)NC(=O)[C@H](CO)NC(=O)[C@H](CCCCN)NC(=O)[C@H]([C@@H](C)O)NC(=O)[C@@H]2CSSC[C@H](NC1=O)C(=O)N[C@@H](CC(N)=O)C(=O)N1CCC[C@@H]1C(=O)N1CCC[C@H]1C(=O)N[C@@H](Cc1ccccc1)C(=O)N2) [Example 3]")
"4%"
>>> assay_result("FCTKSDPPICS (HELM PEPTIDE1{F.C.T.K.S.D.P.P.I.C.S.[dP].D}$PEPTIDE1,PEPTIDE1,2:R3-10:R3|PEPTIDE1,PEPTIDE1,1:R1-13:R2$$$V2.0; SMILES CC[C@H](C)[C@@H]1NC(=O)[C@@H]2CCCN2C(=O)[C@@H]2CCCN2C(=O)[C@H](CC(=O)O)NC(=O)[C@H](CO)NC(=O)[C@H](CCCCN)NC(=O)[C@H]([C@@H](C)O)NC(=O)[C@@H]2CSSC[C@H](NC1=O)C(=O)N[C@@H](CO)C(=O)N1CCC[C@@H]1C(=O)N[C@@H](CC(=O)O)C(=O)N[C@@H](Cc1ccccc1)C(=O)N2) [Example 47]")
"9.3%"
>>> assay_result("ICTKSDPPXCR (HELM PEPTIDE1{I.C.T.K.S.D.P.P.[Nle].C.R.[dP].P}$PEPTIDE1,PEPTIDE1,2:R3-10:R3|PEPTIDE1,PEPTIDE1,1:R1-13:R2$$$V2.0; SMILES CCCC[C@@H]1NC(=O)[C@@H]2CCCN2C(=O)[C@@H]2CCCN2C(=O)[C@H](CC(=O)O)NC(=O)[C@H](CO)NC(=O)[C@H](CCCCN)NC(=O)[C@H]([C@@H](C)O)NC(=O)[C@@H]2CSSC[C@H](NC1=O)C(=O)N[C@@H](CCCNC(=N)N)C(=O)N1CCC[C@@H]1C(=O)N1CCC[C@H]1C(=O)N[C@@H]([C@@H](C)CC)C(=O)N2) [Example 19]")
"32%"
>>> assay_result("FCTKSDPPICS (HELM PEPTIDE1{F.C.T.K.S.D.P.P.I.C.S.[dD].P}$PEPTIDE1,PEPTIDE1,2:R3-10:R3|PEPTIDE1,PEPTIDE1,1:R1-13:R2$$$V2.0; SMILES CC[C@H](C)[C@@H]1NC(=O)[C@@H]2CCCN2C(=O)[C@@H]2CCCN2C(=O)[C@H](CC(=O)O)NC(=O)[C@H](CO)NC(=O)[C@H](CCCCN)NC(=O)[C@H]([C@@H](C)O)NC(=O)[C@@H]2CSSC[C@H](NC1=O)C(=O)N[C@@H](CO)C(=O)N[C@H](CC(=O)O)C(=O)N1CCC[C@H]1C(=O)N[C@@H](Cc1ccccc1)C(=O)N2) [Example 46]")
"12.2%"
